tested-on: T1, CD27 expressed on the cell surface (HT1080_CD27 cells) (human, UniProt P26842 20-260)
T1 construct: whole, on cells; also called K562_CD27
T1 sequence (looked up): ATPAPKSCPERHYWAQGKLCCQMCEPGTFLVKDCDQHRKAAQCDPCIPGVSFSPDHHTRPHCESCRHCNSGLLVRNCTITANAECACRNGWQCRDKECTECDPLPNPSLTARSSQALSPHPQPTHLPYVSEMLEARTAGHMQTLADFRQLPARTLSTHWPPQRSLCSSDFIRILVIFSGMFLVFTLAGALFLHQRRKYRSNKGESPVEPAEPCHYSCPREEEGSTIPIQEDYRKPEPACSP
assay-remarks: cellular binding assay, HT1080_CD27 cells; further: test concentration or dose not given here
Cellular binding assay [RFU]: recorded values
# value in RFU; strip the unit string

// worked examples, Cellular binding assay [RFU] included
P018.S.04.A.C05 (antibody, V domains shown, V regions on human Ig constant parts; also called AB27_70) VH: QSVEESGGRLVTPGTPLTLTCTVSGFSLNYYSMAWVRQVPGEGLEWIGTINTGGGTYYASWAKGRFTISKTSTTVDLKMTSLTAADTATYFCARSDGTGITYYNLWGQGALVTVSS VL: ALVMTQTASPVSAAVGGTVTINCQASETIYSNLAWYQQKQGQPPKLLIYRASNLASGVPSRFSGSESGTQFTLTISGVQSDDAATYYCQGYYNTGITGFGGGTEVVVK    292
P018.S.07.A.F04 (antibody, V domains shown, V regions on human Ig constant parts; also called AB27_128) VH: QSLEESGGRLVTPGTPLTLTCTVSGFSLSSHAMSWVRQAPGKGLEYIGIIDTDASASYASWAKGRFTISRTSTTVDLKITSPTTEDTATYFCARDGGYTDYSYYAMDLWGPGTLVTVSS VL: DIVMTQTPASVEAAVGGTVTIKCQASETIYVNLAWYQQKPGQPPKLLIYRASTLASGVSSRFKGSGSGTEFTLTISDVKSVDAATYYCHQAYRRSDVGNIFGGGTEVVVK    296
P018.S.03.A.E04 (antibody, V domains shown, V regions on human Ig constant parts; also called AB27_52) VH: QEQLKESGGGLVTPGGTLTLTCTVSGIDLSSYAISWVRQAPGKGLEWIGYIYVGSTTTWYASWVKGRSTISKTSSTTVDLKMTSLTTEDTATYFCARAYDSGYIGNSFYIFHPWGPGTLVTVSS VL: DIVMTQTPASVSATVGGTVTIKCQASQTISSRLAWYQQKPGQPPKLLIYSASTLASGVSSRFKGSGSGTEFTLTISDLESADGATYYCAGYGGLGITAFGGGTEVVVK    356
P018.S.07.A.C04 (antibody, V domains shown, V regions on human Ig constant parts; also called AB27_120) VH: QEQLVESGGGLVQPEGSLTLTCTASGFSFSSRFWICWVRQAPGKGLEWIACIYGGSTSATYDASWAKGRFTISKTSSTTVTLQMTSLTAADTATYFCTRLPTYDAYVFNLWGPGTLVTVSS VL: AIVMTQTPSSKSVPVGATATINCQASESVFSNNYLSWYQQKPGRSPKLLIYEASKLASGVPSRFSGSGSGTQFTLTISDVVSDDAATYYCGGYKSNNVDGYAFGGGTEVVVK    300
P018.S.07.A.C02 (antibody, V domains shown, V regions on human Ig constant parts; also called AB27_119) VH: QSVEESGGRLVTPGTPLTLTCTASGFSLSSYHMCWVRQAPGKGLEWIGIIYAGSGNTWYASWAKGRFTISKTSTTVDLKITSPTTEDTATYFCARQPGGGASDTQLDLWGQGTLVTVSS VL: AAVLTQTPSPVSAAVGGTVTINCQSSQSVFDNNQLSWFQHKPGQSPKLLIYRASTLASGVPSRFKGSGSGTQFTLTISDLESDDAATYYCLGGYSSSSDTVFGGGTEVVVE    380

Identify measured Cellular binding assay [RFU] associated with P018.S.05.A.A02 (antibody, V domains shown, V regions on human Ig constant parts; also called AB27_80) VH: QSLEESGGRLVTPGTPLTLICTASGIDLSSYGMTWVRQAPGKGLEWIGIISTIGDTYYASWVKGRFTISKTSTTVDLKITSPTTEDTATYFCARYTNSGYAMMYYFNLWGQGTLVTVSS VL: DIVMTQTPASVEAAVGGTVTIKCQASQNIVNALAWYQQKLGQPPKLLIYVASYLASGVPSRFKGSGSGTEFTLTISDLESVDAATYYCQSYYYSSGTSYGQNAFGGGTEVVVK
334

Identify measured Cellular binding assay [RFU] associated with P018.S.10.A.F01 (antibody, V domains shown, V regions on human Ig constant parts; also called AB27_179) VH: QSLEESGGGLVQPEGSLTLTCTASGFSFSSSDYMCWVRQAPGKGLEWIACMYTGSVEHTYYANWAEGRFTISKTSSTTVTLQMTSLTAADTATYFCARSPTGYPDYGYGGFSLWGPGTLVTVSS VL: ALVMTQTPSSVSAAVGGTVTINCQASQNIYSNLAWYQQKSGQRPKLLIHGASNLESGVPSRFKGSGSGTEFTLTISDLESADAATYYCQSAYYSGGPDMAFGGGTEVVVK
329

Identify measured Cellular binding assay [RFU] associated with P018.S.06.A.F04 (antibody, V domains shown, V regions on human Ig constant parts; also called AB27_109) VH: QQQLEESGGGLVKPEGSLTLTCKASGFTLSSYLMCWVRQAPGKGLELIGCIGTYSGATYYGSWAKDRFTIAKTSSTTVTLQMTSLTAADTATYFCARDYNFALWGPGTLVTVSS VL: AIVMTQTPSSKSVPVGDTVTINCQASESVYNNNYLSWFQQKPGQPPKLLIYGASTLTSGVPSRFKGSGSGTQFTLTISDVVSDDAATYYCAGYKSSWTDGNAFGGGTEVVVK
338

Identify measured Cellular binding assay [RFU] associated with P018.S.04.A.F04 (antibody, V domains shown, V regions on human Ig constant parts; also called AB27_77) VH: QSVEESGGRLVTPGTPLTLTCTVSGFSLSNYAMSWVRQAPGKGLEWIGIIYASGTTYYARWAKGRFTISRTSTTVDLKISSPTTEDTATYFCAREYDSYDYAYGSSIYAFDPWGPGTLVTVSS VL: AYDMTQTPSSVSAAVGGTVTIKCQASESIYSNLAWYQQKPGQRPKLLIYRASTLASGVSSRFKGSGSGTQFTLSISGVESADAATYYCQQGYSSSNVDNVFGGGTEVVVK
320

Identify measured Cellular binding assay [RFU] associated with P018.S.09.A.C06 (antibody, V domains shown, V regions on human Ig constant parts; also called AB27_149) VH: QSVEESGGRLVTPGTPLTLTCTVSGFSLSTYAMGWVRQAPGKGLEWIGIIYTGGSTYYASWAEGRFTISKTSTTVDLKITSPTPEDTATYFCTRDLGATYDYFDLWGQGTLVTVSS VL: AYDMTQTPASVEVAVGGTVTIKCQASQSISTALAWYQQKPGQRPKLLIYDTSDLASGVPSRFSGSGSGTEFTLTISGVESADAATYYCQQGYRHTNVDNPFGGGTGVVVK
219
